B1: CAMK2B (parent)
chain: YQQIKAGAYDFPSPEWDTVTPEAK

Variants of: B1
EXPERIMENT SUMMARY: protein stability index of a GFP-peptide fusion (GPS, HEK-293T) (PSI 1-6); higher = more stable;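 further: lentivirally expressed fusions sorted by FACS into six bins by GFP to DsRed ratio, PSI derived from sequencing read proportions per bin multiplied by bin number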
PARTICULARS: c terminus: a fixed tail appended
PARAMETER MEASURED: protein stability index

- INPUT SEQUENCE: "YQQIKAGHYDFPSPEWDTVTPEAK [A8H]"
  REPORTED: 3.79
- INPUT SEQUENCE: "YQQIKAGAVDFPSPEWDTVTPEAK [Y9V]"
  REPORTED: 4.13
- INPUT SEQUENCE: "YQQIKAGAYDFPSPEWDTVTQEAK [P21Q]"
  REPORTED: 3.91
- INPUT SEQUENCE: "YQQIKAGAYDFPSPETDTVTPEAK [W16T]"
  REPORTED: 4.39
- INPUT SEQUENCE: "YQQIKAGAYDFPSPEKDTVTPEAK [W16K]"
  REPORTED: 3.45
- INPUT SEQUENCE: "YQQIKAGAYDFPSPEWDTVTPYAK [E22Y]"
  REPORTED: 2.46
- INPUT SEQUENCE: "YQQIKAGAYDFPSPEFDTVTPEAK [W16F]"
  REPORTED: 4.16
- INPUT SEQUENCE: "YQQIKAGAYDFPSKEWDTVTPEAK [P14K]"
  REPORTED: 3.85
- INPUT SEQUENCE: "YQQIKAGAYDFPSPEWDTVTTEAK [P21T]"
  REPORTED: 3.6
- INPUT SEQUENCE: "YGQIKAGAYDFPSPEWDTVTPEAK [Q2G]"
  REPORTED: 3.7
- INPUT SEQUENCE: "YQQIWAGAYDFPSPEWDTVTPEAK [K5W]"
  REPORTED: 1.95
- INPUT SEQUENCE: "YQQIKAGAYDFPSPNWDTVTPEAK [E15N]"
  REPORTED: 3.41
- INPUT SEQUENCE: "YQQIKAGAYDFPSPEWDTVTLEAK [P21L]"
  REPORTED: 3.28
- INPUT SEQUENCE: "YQQIKAGGYDFPSPEWDTVTPEAK [A8G]"
  REPORTED: 3.61
- INPUT SEQUENCE: "YQQIKAGAYDFPSPEWDTVEPEAK [T20E]"
  REPORTED: 3.93
- INPUT SEQUENCE: "YQQIKAGAYDFQSPEWDTVTPEAK [P12Q]"
  REPORTED: 4
- INPUT SEQUENCE: "YQQIKAGAYDFPSLEWDTVTPEAK [P14L]"
  REPORTED: 3.17
- INPUT SEQUENCE: "YQQIKAGAYDFPDPEWDTVTPEAK [S13D]"
  REPORTED: 4.08
- INPUT SEQUENCE: "YQQIKAGAYDFPSPEWDTYTPEAK [V19Y]"
  REPORTED: 2.16
- INPUT SEQUENCE: "YQMIKAGAYDFPSPEWDTVTPEAK [Q3M]"
  REPORTED: 2.88
- INPUT SEQUENCE: "YQQIKAGAYDFPSPEWDTVTPCAK [E22C]"
  REPORTED: 2.82
- INPUT SEQUENCE: "YQQIKAGAEDFPSPEWDTVTPEAK [Y9E]"
  REPORTED: 4.71
- INPUT SEQUENCE: "SQQIKAGAYDFPSPEWDTVTPEAK [Y1S]"
  REPORTED: 4.94
- INPUT SEQUENCE: "YQQIKAGAYDFPSPEWDTVTPEFK [A23F]"
  REPORTED: 3.28
- INPUT SEQUENCE: "YQQIKAGAYDFPSPEADTVTPEAK [W16A]"
  REPORTED: 4.07
- INPUT SEQUENCE: "PQQIKAGAYDFPSPEWDTVTPEAK [Y1P]"
  REPORTED: 4.94
- INPUT SEQUENCE: "YQQIKAGAYDHPSPEWDTVTPEAK [F11H]"
  REPORTED: 4.2
- INPUT SEQUENCE: "YQQIKCGAYDFPSPEWDTVTPEAK [A6C]"
  REPORTED: 3.37
- INPUT SEQUENCE: "YQQIKAGAYDFPSPEWNTVTPEAK [D17N]"
  REPORTED: 3.15
- INPUT SEQUENCE: "YQQIKAGKYDFPSPEWDTVTPEAK [A8K]"
  REPORTED: 3.66
